Experiment: Acute toxicity (LD 50) in the mouse
Assay type: in vivo
Conditions: mouse, in vivo, ip, intraperitoneal, mice

# compound, unit.of.measure, LD50
rows = [
    ("CC(=O)NC(Cc1c[nH]c2ccccc12)C(=O)O (racemic) [Lithium N-acetyl tryptophanate (DL), Li N-acetyl tryptophan (DL)]", "mg/kg", 3400),
    ("CC(=O)N[C@@H](Cc1c[nH]c2ccccc12)C(=O)O [Lithium N-acetyl tryptophanate L(+)]", "mg/kg", 3250),
]

====

Experiment: Solubility and hygroscopicity
Type: physicochemical
Settings: water

# compound, solubility in water
rows = [
    ("CC(=O)NC(Cc1c[nH]c2ccccc12)C(=O)O (racemic) [Lithium N-acetyl tryptophanate (DL), Li N-acetyl tryptophan (DL)]", "very soluble"),
    ("CC(=O)N[C@@H](Cc1c[nH]c2ccccc12)C(=O)O [Magnesium N-acetyl tryptophanate L(+), L(+) magnesium N-acetyl tryptophanate]", "very soluble"),
    ("CC(=O)NC(Cc1c[nH]c2ccccc12)C(=O)O (racemic) [Morpholine N-acetyl tryptophanate, morpholine N-acetyl tryptophanate]", "very soluble"),
]
